Molecular target: butyrylcholinesterase (BuChE) (Equus caballus, UniProt P81908)
Sequence (P81908 whole entry): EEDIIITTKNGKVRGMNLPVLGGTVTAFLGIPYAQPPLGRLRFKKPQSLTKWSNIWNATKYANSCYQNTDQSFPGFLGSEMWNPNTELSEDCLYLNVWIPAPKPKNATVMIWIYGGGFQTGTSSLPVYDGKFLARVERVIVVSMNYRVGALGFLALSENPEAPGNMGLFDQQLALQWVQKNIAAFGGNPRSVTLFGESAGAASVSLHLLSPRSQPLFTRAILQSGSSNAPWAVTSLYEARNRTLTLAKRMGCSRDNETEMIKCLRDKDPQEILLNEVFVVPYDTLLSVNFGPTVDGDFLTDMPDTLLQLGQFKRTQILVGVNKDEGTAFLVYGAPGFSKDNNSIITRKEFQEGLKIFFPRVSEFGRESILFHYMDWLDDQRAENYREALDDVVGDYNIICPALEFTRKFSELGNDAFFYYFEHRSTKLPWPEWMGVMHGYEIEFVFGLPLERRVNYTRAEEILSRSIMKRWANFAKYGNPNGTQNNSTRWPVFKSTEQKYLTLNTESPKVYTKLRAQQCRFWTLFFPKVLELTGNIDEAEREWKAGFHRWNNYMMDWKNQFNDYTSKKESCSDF
Reported pIC50 values for a set of compounds
// scale note: pIC50 = -log10(conc_M); give the bare number

Examples with answers:
Exercise: Looking for the measured pIC50 of "COc1ccc(CNCCc2ccc(O)cc2)cc1OC" , can you help?
Key: 3.97

Exercise: For "COc1ccc(CNCCc2ccc(O)cc2)cc1O" then?
Key: 4.79

Exercise: Moving on to "COc1ccc(CN(C)CCc2ccc(O)cc2)cc1O"
Key: 4.98

Exercise: And "Oc1ccc(CCNCc2ccc(O)c(O)c2)cc1" ?
Key: 5.10

# ---- query compound ----
Exercise: Item "COc1cc(CNCCc2ccc(O)cc2)ccc1O" has what recorded pIC50?
Key: 4.56

###

Test system: Huh7 cells
Assay: Cytotoxicity assay (Cell-Titer GLO, ATP levels, 72 h)
Type: cell-based, human
Settings: 72 h treatment, 4–500 µM
property.label: CC50 (µM)
Express your answer in µM, writing the number without its unit.

Exercise: Given the molecule "CN(CCc1ccc(O)cc1)Cc1ccc(O)c(O)c1" , what is its reported CC50?
Key: 386

With those in mind, consider the next molecule.
Exercise: What value of CC50 has been recorded for this entry: "Oc1ccc(CCNCc2ccc(O)c(O)c2)cc1"
Key: 233

###

Target: butyrylcholinesterase (BuChE) (Equus caballus)
Experiment: Butyrylcholinesterase inhibition, colorimetric (DTNB, butyrylthiocholine substrate)
Type: biochemical, equine
Details: 500 μM, highest tested concentration
Catalogue of inhibition at 500 µM values
All answers are understood in %, so give the number only.

Exercise: If you can, please state the reported inhibition at 500 µM value of "COc1ccc(CNCCc2ccc(O)cc2)cc1O" .
Key: 99

Exercise: // next record "CN(CCc1ccc(O)cc1)Cc1ccc(O)c(O)c1"
Key: 96

Exercise: Also "COc1ccc(CNCCc2ccc(O)cc2)cc1OC" ?
Key: 94

Exercise: Another compound to check: "COc1cc(CNCCc2ccc(O)cc2)ccc1O"
Key: 96

Exercise: Try the compound "Oc1ccc(CCNCc2ccc(O)c(O)c2)cc1"
Key: 95

Then this compound:
Exercise: Need inhibition at 500 µM, item "COc1ccc(CN(C)CCc2ccc(O)cc2)cc1O"
Key: 99

###

Molecular target: acetylcholinesterase (AChE) (Electrophorus electricus, UniProt O42275)
Construct: purchased Abcam ab138871
Sequence (O42275 24-633): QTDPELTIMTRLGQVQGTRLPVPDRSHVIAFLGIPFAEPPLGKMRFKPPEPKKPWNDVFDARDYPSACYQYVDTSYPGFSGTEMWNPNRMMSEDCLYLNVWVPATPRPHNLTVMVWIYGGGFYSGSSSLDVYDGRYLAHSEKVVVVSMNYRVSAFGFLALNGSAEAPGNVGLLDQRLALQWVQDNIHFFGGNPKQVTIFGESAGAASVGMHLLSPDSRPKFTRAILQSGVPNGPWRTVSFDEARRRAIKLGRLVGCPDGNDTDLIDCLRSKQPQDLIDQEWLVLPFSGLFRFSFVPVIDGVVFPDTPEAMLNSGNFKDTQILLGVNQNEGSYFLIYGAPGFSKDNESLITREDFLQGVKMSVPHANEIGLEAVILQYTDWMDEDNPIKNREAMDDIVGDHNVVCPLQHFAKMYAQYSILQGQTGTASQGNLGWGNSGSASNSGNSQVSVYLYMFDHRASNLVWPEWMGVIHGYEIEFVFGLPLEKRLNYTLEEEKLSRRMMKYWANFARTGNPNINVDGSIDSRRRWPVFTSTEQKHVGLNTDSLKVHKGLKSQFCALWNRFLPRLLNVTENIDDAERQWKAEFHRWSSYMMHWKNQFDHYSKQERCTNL
Assay: Acetylcholinesterase inhibition, colorimetric (DTNB, acetylthiocholine substrate)
Format: biochemical, electric eel
Settings: 500 μM, highest tested concentration
property.label: inhibition at 500 µM (%)
Supply the numeric figure in %, leaving out any unit text.

Examples with their reported inhibition at 500 µM follow.
Exercise: Can you look up the measured inhibition at 500 µM of CN(CCc1ccc(O)cc1)Cc1ccc(O)c(O)c1 [N-methylnorbelladine] for me?
Key: 31.2

Exercise: Note, next up: COc1ccc(CNCCc2ccc(O)cc2)cc1O [4′-O-methylnorbelladine]
Key: 33.6

Exercise: Query Oc1ccc(CCNCc2ccc(O)c(O)c2)cc1 [Norbelladine] next
Key: 24.5

Exercise: Follow-up entry: COc1cc(CNCCc2ccc(O)cc2)ccc1O [3′-O-methylnorbelladine]
Key: 10

Exercise: Moving on to COc1ccc(CNCCc2ccc(O)cc2)cc1OC [3′,4′-O-dimethylnorbelladine]
Key: 37

# context switch: different molecule, same inhibition at 500 µM
Exercise: Using the record for COc1ccc(CN(C)CCc2ccc(O)cc2)cc1O [4′-O,N-dimethylnorbelladine] , report its inhibition at 500 µM.
Key: 43.6

Source of measurements: paper PMC11433679
